Ref: patent US8163909B2

molecules and their reported IC50
molecular target: CYP3A4 (CYP3A) (Homo sapiens, UniProt P08684); assay: in vitro; details: microsomes, pH 7.4
Sequence (P08684 2-503): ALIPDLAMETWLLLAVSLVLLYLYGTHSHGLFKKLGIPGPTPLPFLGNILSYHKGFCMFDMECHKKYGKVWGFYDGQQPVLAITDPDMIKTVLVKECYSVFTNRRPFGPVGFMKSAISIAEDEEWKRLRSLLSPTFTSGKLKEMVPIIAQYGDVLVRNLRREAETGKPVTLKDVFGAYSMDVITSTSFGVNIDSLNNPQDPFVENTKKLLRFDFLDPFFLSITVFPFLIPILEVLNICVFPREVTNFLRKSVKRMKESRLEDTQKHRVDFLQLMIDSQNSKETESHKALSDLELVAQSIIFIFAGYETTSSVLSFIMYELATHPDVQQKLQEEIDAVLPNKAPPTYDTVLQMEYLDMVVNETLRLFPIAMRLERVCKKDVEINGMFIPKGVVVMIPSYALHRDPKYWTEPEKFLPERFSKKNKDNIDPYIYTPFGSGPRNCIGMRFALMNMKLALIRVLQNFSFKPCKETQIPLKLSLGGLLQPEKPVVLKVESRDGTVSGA

{"query smiles": "COCC(=O)N[C@@H](Cc1cc(F)cc(-c2nccs2)c1)C(=O)CN[C@H]1CC2(CCC2)Oc2ncc(CC(C)C)cc21", "IC50, nM": 100}
{"query smiles": "CC(=O)N[C@@H](Cc1cccc(-c2ccncc2)c1)[C@H](O)CN[C@H]1CC2(CCC2)Oc2ncc(CC(C)(C)C)cc21", "IC50, nM": 160}
{"query smiles": "COCC(=O)N[C@@H](Cc1cc(F)cc(F)c1)[C@H](O)CN[C@H]1CC(C)(C)Oc2c1cc(CC(C)C)c1c2OCO1", "IC50, nM": 100}
{"query smiles": "CO[C@@H](C)C(=O)N[C@@H](Cc1ccc2c(c1)OCO2)[C@H](O)CN[C@H]1CC2(CCC2)Oc2ccc(C[C@@H](C)F)cc21", "IC50, nM": 300}
{"query smiles": "CC(=S)N[C@@H](Cc1cccc(-c2nccs2)c1)[C@H](O)CN[C@H]1CC2(CCC2)Oc2ncc(CC(C)(C)C)cc21", "IC50, nM": 100}
{"query smiles": "COCC(=O)N[C@@H](Cc1cccc(F)c1)[C@H](O)CN[C@H]1CC2(CCC2)Oc2nc3c(cc21)[C@H](C(C)C)CO3", "IC50, nM": 2000}

* * *

molecules and their reported IC50
molecular target: CYP3A4 (CYP3A) (Homo sapiens); test: in vitro; settings: microsomes, pH 7.4;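 note: inhibition of CYP3A-mediated 1-hydroxymidazolam formation after 10 min incubation with NADPH, quantified by HPLC MS relative to metabolite produced without test compound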
reported endpoint: IC50 (nM)

{"query smiles": "CO[C@H](C)C(=O)N[C@@H](Cc1ccc2c(c1)OCO2)[C@H](O)CN[C@H]1CC2(CCC2)Oc2c1cc(CC(C)C)nc2Cl", "unit abbrev": "nM", "rel": "=", "numeric value": 160}
{"query smiles": "C#Cc1ccc(F)c(C[C@H](NC(=O)[C@@H](C)OC)[C@H](O)CN[C@H]2CC3(CCC3)Oc3ncc(CC(C)(C)C)cc32)c1", "unit abbrev": "nM", "rel": "=", "numeric value": 100}
{"query smiles": "Cc1ccccc1CN1CCO[C@@H](C(=O)N[C@@H](Cc2ccc(F)cc2)[C@H](O)CN[C@H]2CC3(CCC3)Oc3ncc(CC(C)(C)C)cc32)C1", "unit abbrev": "nM", "rel": "=", "numeric value": 200}
{"query smiles": "CO[C@H](C)C(=O)N[C@@H](Cc1ccc2c(c1)OCO2)[C@H](O)CN[C@H]1CC2(CCC2)Oc2c1cc(CC(C)(C)C)nc2N(C)C", "unit abbrev": "nM", "rel": "=", "numeric value": 7500}
{"query smiles": "COCC(=O)N[C@@H](Cc1cc(-c2nccs2)ccc1F)[C@H](O)CN[C@H]1CC2(CCC2)Oc2ncc(CC(C)(C)C)cc21", "unit abbrev": "nM", "rel": "≥", "numeric value": 27000}
{"query smiles": "CO[C@H](C)C(=O)N[C@@H](Cc1ccc2c(c1)OCO2)[C@H](O)CN[C@H]1CC2(CCC2)Oc2ccc(C[C@@H](C)F)cc21", "unit abbrev": "nM", "rel": "=", "numeric value": 300}
{"query smiles": "CO[C@H](C)C(=O)N[C@@H](Cc1cncs1)[C@H](O)CN[C@H]1CC2(CCC2)Oc2ncc([C@@H]3CC3(C)C)cc21", "unit abbrev": "nM", "rel": "=", "numeric value": 500}
{"query smiles": "CO[C@H](C)C(=O)N[C@@H](Cc1ccc2c(c1)OCO2)[C@H](O)CN[C@H]1CC2(CCC2)Oc2ncc([C@@H]3CC3(C)C)cc21", "unit abbrev": "nM", "rel": "=", "numeric value": 100}
{"query smiles": "CO[C@H](C)C(=O)N[C@@H](Cc1ccncc1)[C@H](O)CN[C@H]1CC2(CCC2)Oc2ncc(C(F)(F)F)cc21", "unit abbrev": "nM", "rel": "=", "numeric value": 600}
{"query smiles": "CC(C)OCC(=O)N[C@@H](Cc1ccc(F)cc1)[C@H](O)CN[C@H]1CC2(CCC2)Oc2ncc(CC(C)(C)C)cc21", "unit abbrev": "nM", "rel": "=", "numeric value": 600}
{"query smiles": "CC(=O)N[C@@H](Cc1cc(F)cc(F)c1)[C@H](O)CN[C@H]1CC2(CCC2)Oc2c1cc(CC(C)(C)C)nc2-c1cscn1", "unit abbrev": "nM", "rel": "=", "numeric value": 1100}
{"query smiles": "CC(=O)N[C@@H](Cc1cc(F)cc(F)c1)[C@H](O)CN[C@H]1CC2(CCC2)Oc2c1cc(CC(C)(C)C)nc2-n1ccnc1", "unit abbrev": "nM", "rel": "=", "numeric value": 100}
{"query smiles": "COCC(=O)N[C@@H](Cc1cc(F)cc(-c2nccs2)c1)[C@H](O)CN[C@H]1CC2(CCC2)Oc2ccc(CC(C)C)cc21", "unit abbrev": "nM", "rel": "=", "numeric value": 700}
{"query smiles": "CO[C@H](C)C(=O)N[C@@H](Cc1cccc(-c2ncco2)c1)[C@H](O)CN[C@H]1CC2(CCC2)Oc2ncc(CC(C)(C)C)cc21", "unit abbrev": "nM", "rel": "=", "numeric value": 200}
{"query smiles": "COCC(=O)N[C@@H](Cc1cc(Br)cc(Br)c1)[C@H](O)CN[C@H]1CC2(CCC2)Oc2ncc(CC(C)(C)C)cc21", "unit abbrev": "nM", "rel": "=", "numeric value": 100}
{"query smiles": "COCC(=O)N[C@H](Cc1cccc(-c2nccs2)c1)[C@@H](O)CN[C@H]1CC2(CCC2)Oc2ccc(CC(C)(C)C)cc21", "unit abbrev": "nM", "rel": "=", "numeric value": 200}
{"query smiles": "CC(C)(C)Cc1cnc2c(c1)[C@@H](NC[C@@H](O)[C@H](Cc1cccc(-c3nccs3)c1F)NC(=O)[C@@H]1CCCO1)CC1(CCC1)O2", "unit abbrev": "nM", "rel": "=", "numeric value": 100}
{"query smiles": "COCC(=O)N[C@@H](Cc1cccc(C#N)c1)[C@H](O)CN[C@H]1CC2(CCC2)Oc2c(-c3ccncc3)cc(CC(C)(C)C)cc21", "unit abbrev": "nM", "rel": "=", "numeric value": 100}
{"query smiles": "COCC(=O)N[C@@H](Cc1cccc(-n2cccn2)c1)[C@H](O)CN[C@H]1CC2(CCC2)Oc2ncc(CC(C)(C)C)cc21", "unit abbrev": "nM", "rel": "=", "numeric value": 600}
{"query smiles": "COC(OC)C(=O)N[C@@H](Cc1cccc(C#N)c1)[C@H](O)CN[C@H]1CC2(CCC2)Oc2ncc(CC(C)(C)C)cc21", "unit abbrev": "nM", "rel": "=", "numeric value": 500}
{"query smiles": "COCC(=O)N[C@@H](Cc1cc(F)cc(F)c1)[C@H](O)CN[C@H]1CC2(CCC2)Oc2c1cc(CC(C)(C)C)nc2-n1ccnc1", "unit abbrev": "nM", "rel": "=", "numeric value": 200}
{"query smiles": "CO[C@H](C)C(=O)N[C@@H](Cc1cc(F)cc(-c2nccs2)c1)[C@H](O)CN[C@H]1CC2(CCC2)Oc2ncc(Br)cc21", "unit abbrev": "nM", "rel": "=", "numeric value": 300}
{"query smiles": "CO[C@H](C)C(=O)N[C@@H](Cc1cc(-c2nccs2)ccc1F)[C@H](O)CN[C@H]1CC2(CCC2)Oc2ncc(CC(C)(C)C)cc21", "unit abbrev": "nM", "rel": "=", "numeric value": 100}
{"query smiles": "CO[C@H](C)C(=O)N[C@@H](Cc1ccc(-c2nccs2)cc1)[C@H](O)CN[C@H]1CC2(CCC2)Oc2ncc(CC(C)(C)C)cc21", "unit abbrev": "nM", "rel": "≤", "numeric value": 30}
